Data credit: patent US12371405B1

List of Ki tested on sigma-1 receptor (Homo sapiens).
Sequence (Q99720 whole entry): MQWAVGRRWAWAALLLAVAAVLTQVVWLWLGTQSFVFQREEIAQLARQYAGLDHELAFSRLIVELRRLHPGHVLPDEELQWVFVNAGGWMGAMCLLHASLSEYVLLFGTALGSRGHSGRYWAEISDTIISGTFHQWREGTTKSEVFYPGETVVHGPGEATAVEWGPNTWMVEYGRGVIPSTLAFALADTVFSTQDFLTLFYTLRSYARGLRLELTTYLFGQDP

Solved cases below.
Param readout = Ki; param system = sigma-1 receptor (Homo sapiens); param query = CCC(=O)N=S(C)(=O)c1ccc2c(c1)CN(C(C)(C)CCc1ccc(O)c(OC(C)(C)C)c1)C2 (stereo not shown) ; response: value
> 1 µM

# returns recorded Ki (system: sigma-1 receptor (Homo sapiens)) for CC(=O)N=S(=O)(CF)c1ccc2c(c1)CN(C(C)(C)CCc1ccc(O)c(OC(C)(C)C)c1)C2 (stereo not shown)
> 1 µM

Given the entry CCCS(=O)(=NC(=O)CC)c1ccc2c(c1)CN(C(C)(C)CCc1ccc(O)c(OC(C)(C)C)c1)C2 (stereo not shown) , what Ki was observed with sigma-1 receptor (Homo sapiens)?
> 5 µM

What is its Ki for sigma-1 receptor (Homo sapiens)? Entry: CCCCS(=N)(=O)c1ccc2c(c1)CN(C(C)(C)CCc1ccc(O)c(OC(C)(C)C)c1)C2 (stereo not shown)
> 1 µM

Report Ki for CCCCS(=O)(=NC(C)=O)c1ccc2c(c1)CN(C(C)(C)CCc1ccc(O)c(OC(C)(C)C)c1)C2 (stereo not shown) tested on sigma-1 receptor (Homo sapiens).
> 5 µM

Lookup: Ki / sigma-1 receptor (Homo sapiens) / CC(=O)N=S(=O)(CCCF)c1ccc2c(c1)CN(C(C)(C)CCc1ccc(O)c(OC(C)(C)C)c1)C2 (stereo not shown)
> 5 µM

Any idea what Ki came out for CCCS(=O)(=NC(C)=O)c1ccc2c(c1)CN(C(C)(C)CCc1ccc(O)c(OC(C)(C)C)c1)C2 (stereo not shown) on sigma-1 receptor (Homo sapiens)?
> 5 µM

Given the entry CCCC(=O)N=S(=O)(CC)c1ccc2c(c1)CN(C(C)(C)CCc1ccc(O)c(OC(C)(C)C)c1)C2 (stereo not shown) , what Ki was observed with sigma-1 receptor (Homo sapiens)?
> 5 µM

State its Ki on sigma-1 receptor (Homo sapiens): CCCC(=O)N=S(=O)(CCC)c1ccc2c(c1)CN(C(C)(C)CCc1ccc(O)c(OC(C)(C)C)c1)C2 (stereo not shown)
> 5 µM

Ki of CCS(=O)(=NC(C)=O)c1ccc2c(c1)CN(C(C)(C)CCc1ccc(O)c(OC(C)(C)C)c1)C2 (stereo not shown) on sigma-1 receptor (Homo sapiens)?
> 1 µM

Further cases:
Record lookup: for sigma-1 receptor (Homo sapiens), what Ki belongs to CCCCS(=O)(=NC(=O)CC)c1ccc2c(c1)CN(C(C)(C)CCc1ccc(O)c(OC(C)(C)C)c1)C2 (stereo not shown) ?
> 5 µM

Item: CC(C)(C)Oc1cc(CCC(C)(C)N2Cc3ccc(S(=N)(=O)CCCCF)cc3C2)ccc1O (stereo not shown) Test system: sigma-1 receptor (Homo sapiens) Read-out: Ki Value: ?
> 5 µM

Reported Ki for sigma-1 receptor (Homo sapiens), given CC(=O)N=S(C)(=O)c1ccc2c(c1)CN(C(C)(C)CCc1ccc(O)c(OC(C)(C)C)c1)C2 (stereo not shown) ?
> 1 µM
